Overview of recorded CC50 for various molecules
Test system: HCT116 colon cancer cells
Test: CellTiter-Glo viability assay, HCT116 cells
Type: cell-based, human
Settings: 50% viability after 72-hr incubation, n = 3
Positions of bridges follow the written chain, without caps; N, C: chain ends. Non-standard residues stand in square brackets, D forms with d. Residues, ends and D or L forms follow the SMILES beside them. *: point of attachment. NMe2Val = CC(C)[C@@H](C(=O)*)N(C)C; NMeI = CC[C@H](C)[C@H](NC)C(=O)O; NMeL = CN[C@@H](CC(C)C)C(=O)O; NMeDap = CN[C@@H](CN)C(=O)O; dHiv = CC(C)[C@@H](O)C(=O)O; NMeA = CN[C@@H](C)C(=O)O; dNMeA = CN[C@H](C)C(=O)O
Write down the value, and be sure its unit follows.

Completed entries (count: 2):
# MOLECULE, CC50
data = [
    ("CC[C@H](C)[C@H]1C(=O)N[C@@H](C)C(=O)N(C)[C@@H](CC(C)C)C(=O)N[C@@H](Cc2ccc(OC)cc2)C(=O)N(C)[C@H](C)/C=C/[C@H](C)[C@H](N(C)C(=O)[C@H](CC(C)C)N(C)C(=O)[C@H](C)N(C)C(=O)[C@H](OC(=O)[C@H](C(C)C)N(C)C)C(C)C)C(=O)N(C)[C@@H](C)C(=O)N1C [Peptide 3b]", "11 nM"),
    ("CC[C@H](C)[C@H]1C(=O)N[C@@H](C)C(=O)N(C)[C@@H](CC(C)C)C(=O)N[C@@H](Cc2ccc(OC)cc2)C(=O)N(C)[C@H](C)C(=O)N[C@H](C)[C@H](N(C)C(=O)[C@H](CC(C)C)N(C)C(=O)[C@H](C)N(C)C(=O)[C@H](OC(=O)[C@H](C(C)C)N(C)C)C(C)C)C(=O)N(C)[C@@H](C)C(=O)N1C [Peptide 16a]", "4.5 nM"),
]

State the recorded CC50 for this entry: CC[C@H](C)[C@H]1C(=O)N[C@@H](C)C(=O)N(C)[C@@H](CC(C)C)C(=O)N[C@@H](Cc2ccc(OC)cc2)C(=O)N(C)[C@H](C)C(=O)NC[C@H](N(C)C(=O)[C@H](CC(C)C)N(C)C(=O)[C@H](C)N(C)C(=O)[C@H](OC(=O)[C@H](C(C)C)N(C)C)C(C)C)C(=O)N(C)[C@@H](C)C(=O)N1C [Peptide 17a] (NMe2Val-[dHiv][NMeA][NMeL][NMeDap][NMeA][NMeI]A[NMeL]Y(Me)[dNMeA]; lactam 4-C)
60 nM

---

Tested on: U87-MG glioblastoma cells
Assay: CellTiter-Glo viability assay, U87-MG cells
Assay type: cell-based, human
Conditions: 50% viability after 72-hr incubation, n = 3
Positions of bridges follow the written chain, without caps; N, C: chain ends. Non-standard residues stand in square brackets, D forms with d. Residues, ends and D or L forms follow the SMILES beside them. *: point of attachment. NMe2Val = CC(C)[C@@H](C(=O)*)N(C)C; NMeI = CC[C@H](C)[C@H](NC)C(=O)O; NMeT = CN[C@H](C(=O)O)[C@@H](C)O; NMeL = CN[C@@H](CC(C)C)C(=O)O; NMeDap = CN[C@@H](CN)C(=O)O; dHiv = CC(C)[C@@H](O)C(=O)O; NMeA = CN[C@@H](C)C(=O)O; dNMeA = CN[C@H](C)C(=O)O
READOUT_LABEL: CC50 (nM)
Numeric only. Scale: nM

Completed entries (count: 2):
# COMPOUND, UNITS_TEXT, RESULT_VALUE
measured = [
    ("CC[C@H](C)[C@H]1C(=O)N[C@@H](C)C(=O)N(C)[C@@H](CC(C)C)C(=O)N[C@@H](Cc2ccc(OC)cc2)C(=O)N(C)[C@H](C)C(=O)O[C@H](C)[C@H](N(C)C(=O)[C@H](CC(C)C)N(C)C(=O)[C@H](C)N(C)C(=O)[C@H](OC(=O)[C@H](C(C)C)N(C)C)C(C)C)C(=O)N(C)[C@@H](C)C(=O)N1C [Peptide 1b, reference compound] (NMe2Val-[dHiv][NMeA][NMeL][NMeT][NMeA][NMeI]A[NMeL]Y(Me)[dNMeA]; ester 4-C)", "nM", 2.6),
    ("CC[C@H](C)[C@H]1C(=O)N[C@@H](C)C(=O)N(C)[C@@H](CC(C)C)C(=O)N[C@@H](Cc2ccc(-c3ccccc3)cc2)C(=O)N(C)[C@H](C)C(=O)N[C@H](C)[C@H](N(C)C(=O)[C@H](CC(C)C)N(C)C(=O)[C@H](COC)N(C)C(=O)[C@H](OC(=O)[C@H](C(C)C)N(C)C)C(C)C)C(=O)N(C)[C@@H](COC)C(=O)N1C [Peptide 16c]", "nM", 0.6),
]

State the recorded CC50 for this entry: CC[C@H](C)[C@H]1C(=O)N[C@@H](C)C(=O)N(C)[C@@H](CC(C)C)C(=O)N[C@@H](Cc2ccc(OC)cc2)C(=O)N(C)[C@H](C)C(=O)NC[C@H](N(C)C(=O)[C@H](CC(C)C)N(C)C(=O)[C@H](C)N(C)C(=O)[C@H](OC(=O)[C@H](C(C)C)N(C)C)C(C)C)C(=O)N(C)[C@@H](C)C(=O)N1C [Peptide 17a] (NMe2Val-[dHiv][NMeA][NMeL][NMeDap][NMeA][NMeI]A[NMeL]Y(Me)[dNMeA]; lactam 4-C)
48

Data provenance is paper PMC10578308.
